Test system: A431
Method description: filipin (cholesterol) integrated intensity within LBPA endosomes, Z-score; higher = more cholesterol in LBPA endosomes
Condition notes: compound concentration in added solution (µM; 5 µl added to 20 µl cells): 10; 18 h
Where a name gives a salt, the structure may show the parent alone.
Endpoint: filipin (z-score)

For this compound ( Clc1ccc(C(Cn2ccnc2)OCc2csc3c(Cl)cccc23)c(Cl)c1 (centres undefined) [Sertaconazole nitrate] ), measured filipin (z-score) is -0.139

Next:
# filipin (z-score) of Cc1c(-c2ccccc2)oc2c(C(=O)OCCN3CCCCC3)cccc2c1=O [Flavoxate hydrochloride] = -0.515

Data point: CCCCC(=O)O[C@H]1CC[C@H]2[C@@H]3CCc4cc(O)ccc4[C@H]3CC[C@]12C [Estradiol Valerate] ; filipin (z-score) = -0.224

Briefly, filipin (z-score) measured for CCOC(=O)[C@H](CCc1ccccc1)N[C@@H](C)C(=O)N1CCC[C@H]1C(=O)O [Enalapril maleate] : -0.578

Record C=CC(N)CCC(=O)O (centres undefined) . Reported filipin (z-score): -0.566

Per the records, this compound ( CN(Cc1ccc(C(C)(C)C)cc1)Cc1cccc2ccccc12 [Butenafine Hydrochloride] ) has filipin (z-score) equal to -0.512

* * *

Test system: A431
Method description: filipin (cholesterol) integrated intensity within LBPA endosomes, Z-score; higher = more cholesterol in LBPA endosomes
Condition notes: compound concentration in added solution (µM; 5 µl added to 20 µl cells): 10; 18 h
Structures can show the parent of a compound that is named as a salt.
Endpoint: filipin (z-score)
Answer using only a numeral; do not append any unit.

Solved entries (count: 4):
Looking up OC(c1cc(C(F)(F)F)nc2c(C(F)(F)F)cccc12)C1CCCCN1 (stereo unspecified) [Mefloquine hydrochloride] , I see its filipin (z-score) listed as 1.56

Item: `Cc1c(NC(=O)c2cccnc2)c(=O)n(-c2ccccc2)n1C` | filipin (z-score): -0.626

Data point: CN[C@@H]1[C@H](O[C@H]2[C@H](O[C@H]3[C@H](O)[C@@H](O)[C@H](NC(=N)N)[C@@H](O)[C@@H]3NC(=N)N)O[C@@H](C)[C@]2(O)CO)O[C@@H](CO)[C@H](O)[C@H]1O [Dihydrostreptomycin sulfate] ; filipin (z-score) = -0.56

Form: molecule = `Cc1cc(=O)oc2cc(O)ccc12` ; filipin (z-score) = -0.459

Read the next record carefully.
For record `COC(c1ccccc1)(c1ccccc1)[C@H](Oc1nc(C)cc(C)n1)C(=O)O` the listed filipin (z-score) is -0.393

* * *

Test system: A431
Method description: whole-cell filipin (free cholesterol) integrated intensity, Z-score; higher = more cholesterol staining
Condition notes: compound concentration in added solution (µM; 5 µl added to 20 µl cells): 10; 18 h
Counter-ions that a name gives are not always drawn.
Endpoint: whole-cell filipin (z-score)
Enter the number alone.

Before answering, review these 8 worked examples.
Measured whole-cell filipin (z-score) for this entry CC(=O)Nc1ccc(OCC(O)CNC(C)C)cc1 (stereo not drawn) [Practolol] on A431: -0.908

// whole-cell filipin (z-score) (A431) for CN(C)CCOc1ccc(/C(=C(/CCCl)c2ccccc2)c2ccccc2)cc1 [Toremifene] = 2.3

Tested on A431: O=C(CCCN1CCC(O)(c2ccc(Cl)cc2)CC1)c1ccc(F)cc1 [Haloperidol] . Observed whole-cell filipin (z-score): 1.61

Item: CC(C)NNC(=O)c1ccncc1 [Iproniazide phosphate] | System: A431 | whole-cell filipin (z-score): -0.562

So the reported whole-cell filipin (z-score) for Cc1cccc(N(C)C(=S)Oc2ccc3ccccc3c2)c1 [Tolnaftate] , on A431, turned out to be -0.581

The molecule Cc1cn[nH]c1 [Fomepizole] on A431: whole-cell filipin (z-score) was -0.686

A431 whole-cell filipin (z-score) of Nc1nc(O)c2ncn(CCC(CO)CO)c2n1 [Penciclovir] is -0.223

The observed whole-cell filipin (z-score) for Nc1cc(-c2ccncc2)c[nH]c1=O [Amrinone] when tested with A431 stands at -0.578

More entries:
Summary: NC(=O)C(c1ccccc1)(c1ccccc1)[C@@H]1CCN(CCc2ccc3c(c2)CCO3)C1 [Darifenacin hydrobromide] , A431, whole-cell filipin (z-score) = 3.28
